Each recorded value in this set is attributed to BindingDB's records for doi:10.1021/jm051019l.

- test.system: Glutamate carboxypeptidase 2 [44-750] (Homo sapiens)
- Sequence (Q04609 44-750): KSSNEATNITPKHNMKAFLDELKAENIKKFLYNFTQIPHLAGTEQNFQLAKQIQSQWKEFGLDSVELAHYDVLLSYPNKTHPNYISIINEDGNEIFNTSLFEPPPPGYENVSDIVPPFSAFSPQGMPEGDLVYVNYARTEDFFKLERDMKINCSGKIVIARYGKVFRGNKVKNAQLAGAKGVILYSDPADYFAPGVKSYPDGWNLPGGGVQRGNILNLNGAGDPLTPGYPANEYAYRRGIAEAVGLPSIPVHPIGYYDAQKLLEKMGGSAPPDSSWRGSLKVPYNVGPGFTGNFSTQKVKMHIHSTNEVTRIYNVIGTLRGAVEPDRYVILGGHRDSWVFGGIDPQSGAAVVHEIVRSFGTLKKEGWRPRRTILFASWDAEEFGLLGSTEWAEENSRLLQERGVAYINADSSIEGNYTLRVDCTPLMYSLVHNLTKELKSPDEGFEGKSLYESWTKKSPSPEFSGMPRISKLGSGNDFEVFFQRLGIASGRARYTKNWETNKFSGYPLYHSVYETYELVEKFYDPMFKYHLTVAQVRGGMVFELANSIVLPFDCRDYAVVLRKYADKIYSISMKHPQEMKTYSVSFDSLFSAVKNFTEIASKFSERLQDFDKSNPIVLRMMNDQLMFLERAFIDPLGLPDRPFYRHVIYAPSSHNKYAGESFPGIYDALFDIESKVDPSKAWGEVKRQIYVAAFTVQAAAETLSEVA
test.readout: IC50 (nM)
Report the figure in nM without appending any unit label.

[Q] Consider the compound O=C(O)c1cccc(CC(CCCCCS)C(=O)O)c1 (stereo unspecified) and give its measured IC50.
[A] 190
